Target: T1, Tau peptide Start 417 Stop 436
T1 peptide: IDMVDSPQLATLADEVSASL
Assay: Pepscan ELISA on an array of linear 20-mer Tau 441 peptides
Set-up: unit not given here
MEASURED_METRIC: peptide ELISA signal (no name or unit printed)
Reply briefly: the number, and no unit.

Query: Name the reported peptide ELISA signal (no name or unit printed) value associated with the binder PT53 monoclonal antibody (recombinant, mouse IgG2a/kappa) (antibody, V domains shown, also called PT50/PT53) VH: EVKLMESGGGLVQPGASLRLSCAASGFTFTDYYMSWVRQPPGKAPEWLALIRNKANGYTTKYAASVKGRFTISRDNSQNILYLQMNTLRAEDSATYYCVKAVWFAYWGQGTLVTVSA VL: DIVITQDELSNPVTSGESVSISCRSSKSLLYKDGKTYLNWFLQRPGQSPQLLIYLMSTRASGVSDRFSGSGSGTDFTLEISRVKAEDVGVYYCLQLVEYPYTFGGGTKLEIKR
Result: 637

Query: If you can, please state the reported peptide ELISA signal (no name or unit printed) value of PT69 monoclonal antibody (recombinant, mouse IgG2a/kappa) (antibody, V domains shown, also called PT69/PT87; PT69 (PT1B548)) VH: QVQLQQPGAELVKPGASVKMSCKASGYTFTNYWITWVKQRPGQGLEWIGDIYPGSGRTKSNEKFKNKATLTADTSSSTAYMQLSSLTSEDSAVYYCTRRWGLDYWGQGTTLTVSS VL: DIVITQDELSNPVTSGESVSISCRSNKSLLYKDGKTYLNWFLQRPGQSPQLLIYLMSTRASGVSDRFSGSGSGTDFTLEISRVKAEDVGVYYCQQLVDYPLTFGAGTKLELKR .
Result: 2920

Sourced from patent US20240150451A1
